Test system: K562
Assay Protocol: Cytotoxicity against human K562 cells at <=100 uM
Type: functional, cell-based
Test Readout: Activity

1) COc1cc(O)c(C(=O)OCC2=C[C@]3(O)CC(C)(C)[C@H](O)[C@@H]3[C@@]3(C)C[C@@H](O)[C@@]23O)c(C)c1Cl | Not toxic
2) COc1cc(O)c(C(=O)O[C@@H]2C[C@]3(C)[C@H]4[C@@H](O)C(C)(C)C[C@@]4(O)C=C(CO)[C@]23O)c(C)c1Cl | Not toxic
3) Cc1cc(O)cc(O)c1C(=O)O[C@@H]1C[C@]2(C)[C@H]3CC(C)(C)C[C@@]3(O)C=C(CO)[C@]12O | Not toxic
4) COc1cc(O)c(C(=O)O[C@@H]2C[C@]3(C)[C@H]4CC(C)(CO)C[C@@]4(O)C=C(CO)[C@]23O)c(C)c1Cl (some centres undefined) | Not toxic

* * *

Tested on: MCF7
Assay Protocol: Cytotoxicity against human MCF7 cells
Assay type: functional, cell-based
Test Readout: IC50 (µM)
Report only the number, with the unit µM understood.

Field: example entries. Status: answers known.
1. COc1cc(O)c(C(=O)O[C@@H]2C[C@]3(C)[C@H]4CC(C)(C)C[C@H]4C=C(CO)[C@]23O)c(C)c1Cl | 21.3
2. COc1cc(C)c(C(=O)O[C@@H]2C[C@]3(C)[C@H]4CC(C)(C)C[C@H]4C=C(C=O)[C@]23O)c(O)c1 | 11.6

# context switch: different compound, same IC50
Quick one: IC50 of COc1cc(O)c(C(=O)O[C@@H]2C[C@]3(C)[C@H]4CC(C)(C)C[C@H]4[C@H](O)[C@@H](CO)[C@]23O)c(C)c1Cl ?
26.5

* * *

System: MCF7
Assay Protocol: Cytotoxicity against human MCF7 cells
Format: functional, cell-based
// values below are reported pIC50
Answer as the number alone; pIC50 is minus log10 of concentration in mol/L.

Field: example entries. Status: answers known.
1) COc1cc(O)c(C(=O)O[C@@H]2C[C@]3(C)[C@H]4CC(C)(C)C[C@H]4C=C(C=O)[C@]23O)c(C)c1Cl | 5.11
2) Cc1cc(O)cc(O)c1C(=O)O[C@@H]1C[C@@]2(C)C1=C(C=O)[C@@H](O)[C@@H]1CC(C)(C)C[C@@H]12 [DEHYDROARMILLYLORSELLINATE] | 5.10

# context switch: different compound, same pIC50
Given the entry COc1cc(O)c(C(=O)O[C@@H]2C[C@]3(C)[C@H]4CC(C)(C)C[C@H]4C=C(C=O)[C@]23OC)c(C)c1Cl , what pIC50 was observed with MCF7?
5.17

* * *

// values below are reported IC50
System: K562
Assay Protocol: Cytotoxicity against human K562 cells
Format: functional, cell-based
Report only the number, with the unit µM understood.

1) Cc1cc(O)cc(O)c1C(=O)O[C@@H]1C[C@@]2(C)C1=C(C=O)[C@@H](O)[C@@H]1CC(C)(C)C[C@@H]12 [DEHYDROARMILLYLORSELLINATE] | 5

Given the entry COc1cc(O)c(C(=O)O[C@@H]2C[C@]3(C)[C@H]4CC(C)(C)C[C@H]4C=C(C=O)[C@]23O)c(C)c1Cl , what IC50 was observed with K562?
8.9

Given the entry COc1cc(O)c(C(=O)O[C@@H]2C[C@]3(C)[C@H]4CC(C)(C)C[C@H]4[C@H](O)[C@@H](CO)[C@]23O)c(C)c1Cl , what IC50 was observed with K562?
25

All values here come from ChEMBL document CHEMBL1759949.
